- Tested on: IL-13 induced STAT6 phosphorylation in BEAS-2B human lung epithelial cells
- Experiment: Cellular JAKI potency assay (BEAS-2B)
- Format: cell-based
- Test Conditions: Homo sapiens, BEAS-2B, BEAS-2B cells, read-out: BEAS2B pIC50 (converted)
Recorded Metric: IC50

| Structure Notation | Experimental System | Recorded Metric | Test Value |
| --- | --- | --- | --- |
| CCc1cc(O)ccc1-c1ccc2c(-c3nc(C4=CCN(C5CCC5)C4)c[nH]3)n[nH]c2c1F | IL-13 induced STAT6 phosphorylation in BEAS-2B human lung epithelial cells | IC50 | 10 to 31.6 nM |
| CCc1cc(O)ccc1-c1ccc2c(-c3nc(C4=CCN(CC(=O)NC)CC4)c[nH]3)n[nH]c2c1F | IL-13 induced STAT6 phosphorylation in BEAS-2B human lung epithelial cells | IC50 | 10 to 31.6 nM |
| CCc1cc(O)ccc1-c1ccc2c(-c3nc(C4=CCN(C[C@@H]5COCCN5C)CC4)c[nH]3)n[nH]c2c1F | IL-13 induced STAT6 phosphorylation in BEAS-2B human lung epithelial cells | IC50 | 10 to 31.6 nM |
| CCc1cc(O)ccc1-c1ccc2c(-c3nc(C4=CCCN(CCN5CCNC5=O)C4)c[nH]3)n[nH]c2c1F | IL-13 induced STAT6 phosphorylation in BEAS-2B human lung epithelial cells | IC50 | 31.6 to 100 nM |

----------
IC50: recorded values
- Tested on: IL-13 induced STAT6 phosphorylation in BEAS-2B human lung epithelial cells
- Experiment: Cellular JAKI potency assay (BEAS-2B)
- Format: cell-based
- Test Conditions: Homo sapiens, BEAS-2B, BEAS-2B cells, read-out: BEAS2B pIC50 (converted)

| Compound | IC50 |
| --- | --- |
| CCc1cc(O)ccc1-c1ccc2c(-c3nc(C4=CCN(Cc5ccccc5)CC4)c[nH]3)n[nH]c2c1F [Example 134] | 100 to 316 nM |
| CCc1cc(O)ccc1-c1ccc2c(-c3nc(C4=CCN(C5CCC(CO)CC5)C4)c[nH]3)n[nH]c2c1F (stereo not drawn) [Example 331] | 10 to 31.6 nM |
| CCc1cc(O)ccc1-c1ccc2c(-c3nc(C4=CC[C@H](C)N(C[C@H]5COCCN5)C4)c[nH]3)n[nH]c2c1F [Example 269] | 31.6 to 100 nM |
| CCc1cc(O)ccc1-c1ccc2c(-c3nc(C4=CCCN(CCCOC)C4)c[nH]3)n[nH]c2c1 [Example 65] | 3.16 to 10 nM |
| CCc1cc(O)ccc1-c1ccc2c(-c3nc(C4=CCC5(CNC5)OC4)c[nH]3)n[nH]c2c1 [Example 229] | 31.6 to 100 nM |
| CCc1cc(O)ccc1-c1ccc2c(-c3nc(C4=CCN(CCC5(O)CCC5)CC4)c[nH]3)n[nH]c2c1F [Example 334] | 10 to 31.6 nM |
| CCc1cc(O)ccc1-c1ccc2c(-c3nc(C4=CCN(CCNS(C)(=O)=O)CC4)c[nH]3)n[nH]c2c1F [Example 106] | 10 to 31.6 nM |
| CCc1cc(O)ccc1-c1ccc2c(-c3nc(C4=CCN([C@H]5CC[C@@](O)(C(F)(F)F)CC5)C4)c[nH]3)n[nH]c2c1F [Example 359] | 31.6 to 100 nM |
| CCc1cc(O)ccc1-c1ccc2c(-c3nc(C4=CC5COCC(C4)N5)c[nH]3)n[nH]c2c1 (stereo not drawn) [Compound 7] | 10 to 31.6 nM |
| CCc1cc(O)ccc1-c1ccc2c(-c3nc(C4=CCN(C5CN(C)C5)CC4)c[nH]3)n[nH]c2c1F [Example 186] | 3.16 to 10 nM |
| CCc1cc(O)ccc1-c1ccc2c(-c3nc(C4=CCCN(CC(=O)NC)C4)c[nH]3)n[nH]c2c1F [Example 92] | 10 to 31.6 nM |
| CCc1cc(O)ccc1-c1ccc2c(-c3nc(C4=CCN(CC5COC5)C4)c[nH]3)n[nH]c2c1 [Example 71] | 3.16 to 10 nM |
| CCc1cc(O)ccc1-c1ccc2c(-c3nc(C4=CC(C)(C)NC4)c[nH]3)n[nH]c2c1F [Example 336] | 10 to 31.6 nM |
| CCc1cc(O)ccc1-c1ccc2c(-c3nc(C4=CCN(S(=O)(=O)C5CNC5)CC4)c[nH]3)n[nH]c2c1F [Example 178] | 100 to 316 nM |
| CCc1cc(O)ccc1-c1ccc2c(-c3nc(C4=CCN(C(=O)[C@@H]5CCCN5)C4)c[nH]3)n[nH]c2c1F [Example 181] | 31.6 to 100 nM |
